Hello, the source for this data is paper PMC10177380, in case you need it.

test: Selectivity cytotoxicity index (GI50 in MCF10A/GI50 in Du145); settings: human, MCF10A normal breast cells and Du145 prostate cancer cells
RECORDED ENDPOINT: selectivity ratio
Give bare numbers.

What measured selectivity ratio goes with COc1ccc2c(c1)c(CC(=O)OCC(=O)O)c(C)n2C(=O)c1ccc(Cl)cc1 ?
1

###

Give MtMP Changes for every item shown.
system: HT29 colon cells; assay: Mitochondrial membrane potential, TMRE-MtMP assay; format: cell-based, human; conditions: HT29, 24 h, treatment at GI50 concentration (FCCP positive control 20 μM)
One number for each entry, in RFU.

[
  {
    "COMPOUND": "COc1ccc2c(c1)c(CC(=O)OCC(=O)[O][Pt-2]13([OH])([NH2+][C@H]4CCCC[C@@H]4[NH2+]1)[n+]1cccc4c(C)c(C)c5ccc[n+]3c5c41)c(C)n2C(=O)c1ccc(Cl)cc1",
    "RESULT UNIT": "RFU",
    "RESULT VALUE": 387
  },
  {
    "COMPOUND": "N[C@H]1CCCC[C@@H]1N.[OH][Pt+2]1([OH])[N]2C=CC=c3ccc4c(c32)[N]1C=CC=4",
    "RESULT UNIT": "RFU",
    "RESULT VALUE": 321
  },
  {
    "COMPOUND": "Cc1c(C)c2cccnc2c2ncccc12.N[C@H]1CCCC[C@@H]1N.[Pt] [Complex 56MESS, [Pt^II(5,6-Me2phen)(SS-DACH)]^2+]",
    "RESULT UNIT": "RFU",
    "RESULT VALUE": 156
  }
]

Batch: MtMP Changes for all items listed.
1. Cc1cc2c3c4c1=CC=C[N]4[Pt+2][N]3C=CC=2.N[C@H]1CCCC[C@@H]1N
2. N.N.[Cl][Pt][Cl] [Cisplatin, cis-diamminedichloroplatinum(II)]
3. Cc1c(C)c2c3c4c1=CC=C[N]4[Pt+2]([OH])([OH])[N]3C=CC=2.N[C@H]1CCCC[C@@H]1N

1. 210
2. 256
3. 245
